- TARGET OR TEST SYSTEM: T1, human CD112R antigen protein huCD112R-His (Acro Biosysterm, PVG-H52H4) (human, UniProt Q6DKI7 41-171)
- T1 construct: purchased; also called human antigen protein; not shown: His tag
- T1 sequence (looked up): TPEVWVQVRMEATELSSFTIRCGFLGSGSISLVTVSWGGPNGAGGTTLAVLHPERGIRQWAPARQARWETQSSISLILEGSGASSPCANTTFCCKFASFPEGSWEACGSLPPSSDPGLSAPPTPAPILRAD
- TEST NAME: SPR (Biacore X100), antibody captured on Protein A chip, huCD112R-His as analyte, 1:1 Langmuir
READOUT LABEL: Kd (nM)
Provide the reading as a plain figure in nM.

For orientation, consider the following solved cases.
BINDER	Kd (nM)
C4 (antibody, human IgG1, kappa, V domains shown) VH: EVQLQQSGPELVKPGASVKISCKASGYTFTDYFMNWVKQSHGKSLEWIGDIIPNNDSPNYNQKFKGKATLTVDKSSNTAYMELRSLTSEDSAVYYCASGYFDVWGTGTTVTVSS VL: DIVMTQSPSSLSVSAGEKVTMSCKSSQSLLNSGNQKNFLAWYQQKPGQPPKLLIYGTSTRESGVPDRFTGSGSGTDFTLTISSVQAEDLAVYYCQNDHSYPWTFGGGTKLEIKR	0.0141
C114 (antibody, human IgG1, kappa, V domains shown) VH: QVQLQQSGAELVRPGTSVKMSCKAAGYTFTNSWINWVKQRPGHGLEWIGDIYPGNTFPNYNEKFKGKATLTADTSSSTAYMQLSSLTSEDSAVYYCTGGYFDVWGTGTTVTVSS VL: DIVMTQSPSSLSVSAGEKVTMSCKSSQSLLNSGNQKNFLAWYQQKPGQPPKLLIFGASTRQSGVPDRFTGSGSGTDFTLTISSVQAEDLAVYYCQNDHSYPYTFGGGTKLEMKR	0.0356
C13 (antibody, human IgG1, kappa, V domains shown) VH: EVQLQQSGPELVKPGASVKISCKASGYTFTDYFMNWVKQSHGKSLEWIGDINPNNGSPNYNQKFKGRATLTVDKSSSTAYMELRSLTSEDSAVYYCASGYFDVWGTGTTVTVSS VL: DIVMTQSPSSLSVSAGEKVTMSCKSSQSLLNSGTQKNYLAWYQQKPGQPPKLLIYGASTRESGVPDRFTGSGSGTDFTLTISSVQAEDLAVYYCQNDHSYPWTFGGGTKLEIKR	0.0218

Query :: Endpoint output: Kd of C24 (antibody, human IgG1, kappa, V domains shown) VH: QVQLKQSGPGLVQPSQNLSITCTVSGFSLTGYGINWVRQSPGKGLEWLGVIWSGGNTEYNAAFRSRLSISKDTSKSQVFLKMNSLQADDTAIYSCARDSTGLYAMDYWGPGTSVTVSS VL: DLQMTQTTSSLSASLGDRVTISCRTSQDISNFLNWYQQKPDGPLKLLIYYTSRLHSGVPSRFSGSGSGTDYSLTISNLEQEDIATYFCQQGYMLPPTFGGGTKLEIKR . Value?
Result :: 0.0467

Query :: Value lookup for Kd; key = C115 (antibody, human IgG1, kappa, V domains shown) VH: EVQLQQSGAELVKPGASVKLSCTASGFNIEDTYIHWVKRRPEQGLEWIGGIDPAIGNTLYASKFQDMATITADTSSSTAYMQLSSLTSGDTAVYYCARERVYSNTLYYAMDYWGQGTSVTVSS VL: DIVLTQSPASLVVSLGQRATISCRASKSVSISGYSYMHWYQQKPGQPPKLLIYLASNLESGVPARFSGSGSGTDFTLNIHPVEAEDAATYYCQHSRELPPTFGGGTNLEIKR
Result :: 0.222
